# subject of test: T1, HSP70 (human HSP70; the antigen of the binning, humanization and variant binding assays) (human, UniProt P0DMV8 1-641, limits assumed)
# T1 construct: also called hu HSP70
# assay details: BLI, anti-human Fc capture, antigen 100 nM
measured endpoint: % Diss (%)
Numbers only here, please. The scale is %.

Inquiry: Suppose we examine the binder h77A-1.10 (antibody, V domains shown, captured by anti-human Fc) VH: QIQLVQSGDEVKKPGASVKVSCKASGYTFTNYGMNWVRQAPGQGLEWMGWINTYTGEPTYADDFKGRFTFTTDTSTSTAYMELRSLRSDDTAVYFCARYDHAMDYWGQGTLVTVSS VL: EIVLTQSPDSLAVSLGERATINCKSSQSLLNSGTRKNYLAWYQQKAGQSPKLLIYWTSTRESGVPDRFSGSGSGTDFTLTIDSLQAEDVAVYYCKQSYTLYTFGGGTKVEIK ; what % Diss value has been reported?
Reply text: 8.76

Inquiry: Record request: % Diss value, item h77A-1.74 (antibody, V domains shown, captured by anti-human Fc) VH: QIQLVQSGPEVKKPGASVKVSCKASGYTFTNYGMNWVRQAPGQGLEWMGWINTYTGEPTYADDFKGRFTFTTDTSTTTGYMELRSLRSDDTAVYFCARYDHAMDYWGQGTLVTVSS VL: EIVLTQSPDSLAVSLGERATIKCKSSQSLLNSGTRKNYLAWYQQKAGQSPKLLIYWTSTRESGVPDRFSGSGSGTDFTLTIDSLQAEDVAIYYCKQSYTLYTFGGGTKVEIK
Reply text: 9.07

Inquiry: Given h77A-1.6 (antibody, V domains shown, captured by anti-human Fc) VH: QIQLVQSGAEVKKPGASVKVSCKASGYTFTNYGMNWVRQAPGQGLEWMGWINTYTGEPTYADDFKGRFTFTTDTSTRTAYMELRSLRSDDTAVYFCARYDHAMDYWGQGTLVTVSS VL: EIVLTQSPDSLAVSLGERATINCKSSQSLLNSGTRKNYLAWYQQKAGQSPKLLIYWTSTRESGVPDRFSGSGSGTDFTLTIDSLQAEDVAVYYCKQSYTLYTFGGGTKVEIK , state its recorded % Diss.
Reply text: 6.58
